inhibition at 0.1 µM listing for selected compounds.
biological target: androgen receptor (AR) (Homo sapiens, UniProt P10275); experiment: Degradation of androgen receptor (AR) protein in VCaP cells by Western blot; format: cell-based; conditions: percentage of degraded AR at 100 nM, VCaP cells, 16 h
Sequence (P10275 whole entry): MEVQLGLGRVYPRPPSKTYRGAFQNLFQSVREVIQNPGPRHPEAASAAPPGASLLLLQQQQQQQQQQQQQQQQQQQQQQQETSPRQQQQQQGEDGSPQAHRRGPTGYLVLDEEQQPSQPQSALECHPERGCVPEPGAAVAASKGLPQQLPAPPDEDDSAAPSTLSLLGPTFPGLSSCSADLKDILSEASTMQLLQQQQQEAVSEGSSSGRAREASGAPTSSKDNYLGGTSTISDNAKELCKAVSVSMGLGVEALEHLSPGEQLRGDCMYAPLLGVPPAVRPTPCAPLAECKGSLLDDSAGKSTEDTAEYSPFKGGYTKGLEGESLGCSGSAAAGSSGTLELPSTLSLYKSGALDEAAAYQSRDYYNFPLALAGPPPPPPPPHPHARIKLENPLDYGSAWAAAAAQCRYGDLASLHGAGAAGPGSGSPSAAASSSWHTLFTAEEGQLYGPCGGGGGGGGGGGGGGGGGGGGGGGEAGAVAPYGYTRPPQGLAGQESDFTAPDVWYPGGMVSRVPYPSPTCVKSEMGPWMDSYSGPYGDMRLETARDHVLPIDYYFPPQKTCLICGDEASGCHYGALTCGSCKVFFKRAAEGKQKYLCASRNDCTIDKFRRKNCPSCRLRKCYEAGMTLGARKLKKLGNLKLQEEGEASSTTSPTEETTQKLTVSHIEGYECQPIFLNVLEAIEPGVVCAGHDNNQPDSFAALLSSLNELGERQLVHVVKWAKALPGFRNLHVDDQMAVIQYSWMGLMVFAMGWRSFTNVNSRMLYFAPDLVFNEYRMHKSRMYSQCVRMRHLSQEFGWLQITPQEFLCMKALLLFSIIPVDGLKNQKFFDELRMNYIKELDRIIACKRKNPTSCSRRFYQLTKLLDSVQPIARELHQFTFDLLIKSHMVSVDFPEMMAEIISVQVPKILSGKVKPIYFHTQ

compound: N#Cc1ccc(O[C@H]2CC[C@H](NC(=O)c3ccc(N4C[C@@H]5[C@@H](CN6CCN(c7ccc8c(c7)C(=O)N(C7CCC(=O)NC7=O)C8=O)CC6)[C@@H]5C4)nn3)CC2)cc1Cl (stereo partly shown)
measurement.target: androgen receptor (AR) (Homo sapiens, UniProt P10275)
reading: 25 to 49%

compound: CC1(C)[C@H](Oc2ccc(C#N)c(Cl)c2)C(C)(C)[C@H]1N1Cc2cc(N3CCC(CN4CCN(c5ccc6c(c5)C(=O)N(C5CCC(=O)NC5=O)C6=O)CC4)CC3)ccc2C1=O (stereo partly shown)
measurement.target: androgen receptor (AR) (Homo sapiens, UniProt P10275)
reading: < 25%

Fill in the recorded inhibition at 0.1 µM for this compound, with androgen receptor (AR) (Homo sapiens, UniProt P10275) as test system: N#Cc1ccc(O[C@H]2CC[C@H](NC(=O)c3ccc(N4CCC5(CCN(CC6CCN(c7cc8c(cc7F)C(=O)N(C7CCC(=O)NC7=O)C8=O)CC6)C5)C4)nn3)CC2)cc1Cl (stereo partly shown)
> 80%

Same again, this time with N#Cc1ccc(O[C@H]2CC[C@H](NC(=O)c3cnc(N4CC5CN(CC6CN(c7cc8c(cc7F)C(=O)N(C7CCC(=O)NC7=O)C8=O)C6)CC5C4)cn3)CC2)cc1Cl (stereo partly shown)
50 to 79%

Same again, this time with N#Cc1ccc(O[C@H]2CC[C@H](NC(=O)c3cnc(N4CCC(N5CC6CN(c7ccc8c(c7)C(=O)N(C7CCC(=O)NC7=O)C8=O)CC6C5)CC4)cn3)CC2)cc1Cl (stereo partly shown)
50 to 79%
